System: Plasmodium berghei
Experiment summary: Screen against P. berghei liver stage (PbLuc), transformed with Luciferase, at 2uM
Format: functional, HepG2
Details: tested at 2 uM
The whole screen tested about 68,000 compounds, of which about 2,700 (4%) showed an effect of 50% or more. This excerpt belongs to a sample that is enriched for strong results.
Metric name: INHIBITION (%)
Numbers only, in %.

Here's what some known entries look like.
# Molecule, Tested target, INHIBITION, %
records = [
    ("Cc1ccc(Cl)cc1N1CCC(CNC(=O)CC(F)(F)F)C1 (stereo unspecified)", "Plasmodium berghei", 42.92),
    ("Cc1cnn(CC(=O)NCC2CCN(c3cc(Cl)ccc3C)C2)c1 (stereo unspecified)", "Plasmodium berghei", 80.06),
    ("Cn1nc(C(=O)N2CCOCC2)cc1C(=O)Nc1ccc(Cl)cc1Cl", "Plasmodium berghei", 61.02),
    ("Cc1ncoc1C(=O)N1CC[C@@]2(C[C@H](NS(C)(=O)=O)CCO2)C1", "Plasmodium berghei", -43.98),
    ("Cn1nc(C(=O)N2CCOCC2)cc1C(=O)Nc1c(Cl)cccc1Cl", "Plasmodium berghei", 13.45),
]

We now examine a further molecule.
[in] Which value of INHIBITION has been reported for Cc1ncc(CNC(=O)CCc2ccccc2F)c(C2CCCN2C)n1 (stereo unspecified) in the records?
[out] 4.66
